Reported values of IC50 for individual entries
molecular target: Androgen receptor (Rattus norvegicus, UniProt P15207); assay: In vitro antagonist activity against rat prostatic androgen receptor (AR)
measurement-label: IC50 (nM)

molecule="CN1C(=O)CC[C@@]2(C)C1CC[C@H]1[C@@H]3CC[C@H](O)[C@@]3(C)CC[C@@H]12 (some centres not stated)" val=19
molecule=CCN(CC)C(=O)[C@H]1CC[C@H]2[C@@H]3CC[C@H]4N(C)C(=O)C[C@H](C)[C@]4(C)[C@H]3CC[C@]12C val=16000
molecule=CCN(CC)C(=O)[C@H]1CC[C@H]2[C@@H]3CC[C@H]4N(C)C(=O)[C@@H](F)C[C@]4(C)[C@H]3CC[C@]12C val=1800
molecule="CN1C(=O)C=C[C@@]2(C)C1CC[C@H]1[C@@H]3CC[C@H](C(=O)Sc4ccccn4)[C@@]3(C)CC[C@@H]12 (some centres not stated)" val=100
molecule=CCN(CC)C(=O)[C@H]1CC[C@H]2[C@@H]3CC[C@H]4N(C)/C(=N/O)CC[C@]4(C)[C@H]3CC[C@]12C val=540
molecule=CC(C)N(C(=O)[C@H]1CC[C@H]2[C@@H]3CC[C@H]4N(C)C(=O)CC[C@]4(C)[C@H]3CC[C@]12C)C(C)C val=14000
molecule=CCN(CC)C(=O)[C@H]1CCC[C@H]2[C@@H]3CC[C@H]4N(C)C(=O)NC[C@]4(C)[C@H]3CC[C@]12C val=1600

###

Each item that follows carries a reported pIC50.
Target: Androgen receptor (Rattus norvegicus)
Sequence (P15207 whole entry): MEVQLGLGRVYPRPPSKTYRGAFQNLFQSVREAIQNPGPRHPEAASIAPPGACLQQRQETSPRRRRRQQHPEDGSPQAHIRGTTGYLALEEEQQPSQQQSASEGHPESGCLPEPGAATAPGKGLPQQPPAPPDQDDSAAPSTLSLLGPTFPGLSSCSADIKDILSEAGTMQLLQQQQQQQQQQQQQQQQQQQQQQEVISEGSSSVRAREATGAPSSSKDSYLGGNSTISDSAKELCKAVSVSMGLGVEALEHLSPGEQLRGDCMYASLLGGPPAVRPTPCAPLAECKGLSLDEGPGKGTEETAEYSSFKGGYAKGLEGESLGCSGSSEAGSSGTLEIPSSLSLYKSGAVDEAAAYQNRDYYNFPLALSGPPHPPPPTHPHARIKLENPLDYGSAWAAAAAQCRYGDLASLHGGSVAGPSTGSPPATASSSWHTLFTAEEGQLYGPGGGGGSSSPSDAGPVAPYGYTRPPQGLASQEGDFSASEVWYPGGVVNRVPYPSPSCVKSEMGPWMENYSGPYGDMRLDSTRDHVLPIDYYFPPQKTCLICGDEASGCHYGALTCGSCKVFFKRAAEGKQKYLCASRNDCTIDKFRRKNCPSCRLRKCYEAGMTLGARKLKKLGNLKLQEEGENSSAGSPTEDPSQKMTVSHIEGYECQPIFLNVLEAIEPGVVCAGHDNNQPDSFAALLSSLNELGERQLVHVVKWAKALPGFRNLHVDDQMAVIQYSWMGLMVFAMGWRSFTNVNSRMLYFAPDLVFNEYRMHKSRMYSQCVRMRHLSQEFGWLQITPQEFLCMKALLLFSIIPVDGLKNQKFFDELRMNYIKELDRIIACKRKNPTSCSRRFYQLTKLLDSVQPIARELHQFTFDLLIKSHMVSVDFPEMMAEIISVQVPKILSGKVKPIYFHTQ
pIC50: −log10 of the molar value.
measurement-label: pIC50

molecule="C[C@]12CC[C@H]3[C@@H](CCC4NC(=O)CC[C@@]43C)[C@@H]1CC[C@@H]2C(=O)c1ccc[nH]1 (some centres undefined)" val=4.82
molecule=CCN(CC)C(=O)[C@H]1CC[C@H]2[C@@H]3CC[C@H]4N(CC)C(=O)CC[C@]4(C)[C@H]3CC[C@]12C val=4.49
molecule=COC(=O)[C@H]1CC[C@H]2[C@@H]3CC[C@H]4NC(=O)C=C[C@]4(C)[C@H]3CC[C@]12C val=5.49
molecule="CN1C(=O)CC[C@@]2(C)C1CC[C@H]1[C@@H]3CC[C@H](C(=O)c4ccc[nH]4)[C@@]3(C)CC[C@@H]12 (some centres undefined)" val=7.05
